Source: patent US20260062420A1

Parameter: IC50. Scope: all listed entries.
TARGET_OR_TEST_SYSTEM: active mouse DPP1 enzyme (Mus musculus (Mouse))
TEST_NAME: Mouse DPP1 Enzyme IC50 Assay
Type: biochemical
MEASUREMENT_CONDITIONS: mouse DPP1 enzyme; Table 16; read-out: IC50, nM; Mouse
PROPERTY_NAME: IC50

Cn1c(=O)oc2ccc(-c3ccc(C[C@@H](C#N)NC(=O)C4CNC(C)(C)CO4)cc3)cc21 (stereo partly drawn)
785 nM
C=C1Oc2ccc(-c3ccc(C[C@@H](C#N)NC(=O)CC4(N)CCS(=O)(=O)C4)cc3)cc2N1C (stereo partly drawn)
> 5000 nM
Cn1c(=O)oc2ccc(-c3ccc(C[C@@H](C#N)NC(=O)C4CS(=O)(=O)CCN4)cc3)cc21 (stereo partly drawn)
> 5000 nM
Cn1c(=O)oc2ccc(-c3ccc(C[C@@H](C#N)NC(=O)CC4CCCN4)cc3)cc21 (stereo partly drawn)
> 5000 nM
C=C1Oc2ccc(-c3ccc(C[C@@H](C#N)NC(=O)C4CNC[C@H](O)CO4)cc3)cc2N1C (stereo partly drawn)
2 nM
Cn1c(=O)oc2ccc(-c3ccc(C[C@@H](C#N)NC(=O)C4CNCCN4)cc3)cc21 (stereo partly drawn)
> 5000 nM
Cn1c(=O)oc2ccc(-c3ccc(C[C@@H](C#N)NC(=O)[C@@H]4CNCCCO4)cc3F)cc21
218 nM
Cn1c(=O)oc2ccc(-c3ccc(CC(C#N)NC(=O)[C@H]4CCNC[C@H]4N)cc3)cc21 (stereo partly drawn)
2430 nM
Cn1c(=O)oc2ccc(-c3ccc(C[C@@H](C#N)NC(=O)CC(N)C4CC4)cc3)cc21 (stereo partly drawn)
> 5000 nM

----------
TARGET_OR_TEST_SYSTEM: Recombinant human DPP1 enzyme (Homo sapiens (Human))
TEST_NAME: Human DPP1 Enzyme IC50 Assay
Format: biochemical
MEASUREMENT_CONDITIONS: human DPP1 enzyme, H-Gly-Arg-AMC substrate 400 μM; Table 14; read-out: IC50
PROPERTY_NAME: IC50 (nM)

Cn1c(=O)oc2ccc(-c3ccc(C[C@@H](C#N)NC(=O)[C@@H]4C[C@H]5COC[C@H]5N4)cc3)cc21
69.2

----------
TARGET_OR_TEST_SYSTEM: Recombinant human DPP1 enzyme (Homo sapiens (Human))
TEST_NAME: Human DPP1 Enzyme IC50 Assay
Assay type: biochemical
MEASUREMENT_CONDITIONS: human DPP1 enzyme; Table 16; read-out: IC50, nM; Human
PROPERTY_NAME: IC50 (nM)

Cn1c(=O)oc2ccc(-c3ccc(C[C@@H](C#N)NC(=O)[C@@H]4C[C@@H]5CCC[C@@H]5N4)c(F)c3)cc21 [drawing 1220]
5.9
N#C[C@H](Cc1ccc(-c2ccc3c(c2)C(=O)NC3)cc1)NC(=O)[C@@H]1CNCCCO1
428

----------
TARGET_OR_TEST_SYSTEM: active mouse DPP1 enzyme (Mus musculus (Mouse), UniProt P97821)
Sequence (P97821 25-134): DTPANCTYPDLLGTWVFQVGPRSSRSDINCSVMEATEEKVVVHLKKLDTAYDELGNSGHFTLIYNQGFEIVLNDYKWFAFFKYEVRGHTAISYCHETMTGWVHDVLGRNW
Sequence (P97821 231-393): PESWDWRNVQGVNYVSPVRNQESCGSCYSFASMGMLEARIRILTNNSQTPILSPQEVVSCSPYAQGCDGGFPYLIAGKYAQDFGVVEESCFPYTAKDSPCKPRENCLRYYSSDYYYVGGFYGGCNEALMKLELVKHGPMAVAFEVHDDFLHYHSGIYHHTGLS
Sequence (P97821 394-462): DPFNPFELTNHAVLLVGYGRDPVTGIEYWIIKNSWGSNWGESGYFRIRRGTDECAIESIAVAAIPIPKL
TEST_NAME: Mouse DPP1 Enzyme IC50 Assay
Type: biochemical
MEASUREMENT_CONDITIONS: figure legends FIG. 12 and 13; read-out: IC50, in vitro inhibition of mouse DPP1
pIC50: −log10 of the molar value.
Reported pIC50 values for a set of molecules
PROPERTY_NAME: pIC50

Cn1c(=O)oc2ccc(-c3ccc(C[C@@H](C#N)NC(=O)[C@@H]4C[C@H]5COC[C@H]5N4)cc3)cc21 [IWD-005]
7.34
N#Cc1ccc(-c2ccc(C[C@@H](C#N)NC(=O)[C@@H]3C[C@H]4COC[C@H]4N3)cc2)cc1 [IWD-004]
6.68
Cn1c(=O)oc2ccc(-c3ccc(C[C@@H](C#N)NC(=O)[C@@H]4CNCCCO4)cc3)cc21 [brensocatib, reference compound]
7.61

----------
TARGET_OR_TEST_SYSTEM: DPP1 in HL-60 cells (Homo sapiens (Human), UniProt P53634)
Sequence (P53634 25-134): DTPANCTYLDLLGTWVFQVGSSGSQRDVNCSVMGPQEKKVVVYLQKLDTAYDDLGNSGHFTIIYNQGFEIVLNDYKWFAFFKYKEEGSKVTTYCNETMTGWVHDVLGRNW
Sequence (P53634 231-394): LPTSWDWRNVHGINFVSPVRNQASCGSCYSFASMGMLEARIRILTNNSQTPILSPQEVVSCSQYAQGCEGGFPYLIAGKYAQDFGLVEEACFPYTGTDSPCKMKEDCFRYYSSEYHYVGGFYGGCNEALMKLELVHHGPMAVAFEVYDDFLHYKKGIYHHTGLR
Sequence (P53634 395-463): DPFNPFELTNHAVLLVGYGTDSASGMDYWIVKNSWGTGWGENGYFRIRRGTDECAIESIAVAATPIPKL
TEST_NAME: DPP1 Cell IC50 Assay (HL-60 cells, H-Gly-Phe-AFC substrate)
Assay type: cell-based
MEASUREMENT_CONDITIONS: H-Gly-Phe-AFC substrate, Table 15, read-out: Cell IC50
Recorded IC50 by entry
PROPERTY_NAME: IC50

CC[C@@H](/C=C/C(=O)N1CCc2ccccc21)NC(=O)C1(N)CCOCC1 [GSK-2793660, reference compound]
0.34 nM
Cn1c(=O)oc2ccc(-c3ccc(C[C@@H](C#N)NC(=O)[C@@H]4C[C@H]5C[C@H]5N4)cc3)cc21 [IWD-002]
3.7 nM

----------
TARGET_OR_TEST_SYSTEM: DPP1 in HL-60 cells (Homo sapiens (Human), UniProt P53634)
TEST_NAME: DPP1 Cell IC50 Assay (HL-60 cells, H-Gly-Phe-AFC substrate)
Assay type: cell-based
MEASUREMENT_CONDITIONS: Table 16, read-out: Cell Assay
PROPERTY_NAME: IC50 (nM)

Cn1c(=O)oc2ccc(-c3cc(F)c(C[C@@H](C#N)NC(=O)[C@@H]4CNCCCO4)cc3F)cc21
3.8
Cn1c(=O)oc2ccc(-c3cc(F)c(C[C@@H](C#N)NC(=O)[C@@H]4CNCCCO4)c(F)c3)cc21
4.9
N#Cc1ccc(-c2ccc(C[C@@H](C#N)NC(=O)[C@@H]3C[C@@H]4CCC[C@@H]4N3)c(F)c2)cc1
3
N#Cc1ccc(-c2ccc(C[C@@H](C#N)NC(=O)[C@@H]3CNCCCO3)c(F)c2)cc1 [drawing 1196]
3.6
Cn1c(=O)oc2ccc(-c3ccc(C[C@@H](C#N)NC(=O)[C@@H]4C[C@@H]5COC[C@@H]5N4)cc3)cc21 [drawing 1208]
462
[2H]C([2H])([2H])n1c(=O)oc2ccc(-c3ccc(C[C@@H](C#N)NC(=O)C4CNC4)c(F)c3)cc21
418
Cn1c(=O)oc2ccc(-c3ccc(C[C@@H](C#N)NC(=O)[C@@H]4C[C@@H]5CCC[C@@H]5N4)cc3)cc21
3.1
N#C[C@H](Cc1ccc(-c2ccc3c(c2)C(=O)NC3)cc1)NC(=O)[C@@H]1CNCCCO1
59.9
N#Cc1ccc(-c2ccc(C[C@@H](C#N)NC(=O)[C@@H]3CNCCCO3)c(F)c2)cc1 [drawing 1197]
4.2

----------
TARGET_OR_TEST_SYSTEM: active mouse DPP1 enzyme (Mus musculus (Mouse), UniProt P97821)
TEST_NAME: Mouse DPP1 Enzyme IC50 Assay
Type: biochemical
MEASUREMENT_CONDITIONS: mouse DPP1 enzyme; Table 16; read-out: IC50, nM; Mouse
Catalogue of compounds with associated IC50
PROPERTY_NAME: IC50 (nM)

Cn1c(=O)oc2ccc(-c3ccc(C[C@@H](C#N)NC(=O)CC4(N)CCCCC4)cc3)cc21
815
N#Cc1ccc(-c2ccc(C[C@@H](C#N)NC(=O)[C@@H]3C[C@H]4C[C@H]4N3)cc2)cc1
92.4
Cn1c(=O)oc2ccc(-c3ccc(C[C@@H](C#N)NC(=O)[C@@H]4C[C@H]5C[C@H]5N4)cc3)cc21 [drawing 1152]
19.6
Cn1c(=O)oc2ccc(-c3ccc(C[C@@H](C#N)NC(=O)[C@@H]4COCCN4)cc3)cc21
306
N#Cc1ccc(-c2ccc(C[C@@H](C#N)NC(=O)[C@@H]3C[C@@H]4COC[C@@H]4N3)cc2)cc1
246
Cn1c(=O)oc2ccc(-c3ccc(C[C@@H](C#N)NC(=O)[C@H]4C[C@H]5OCC[C@H]5N4)cc3)cc21
226
Cn1c(=O)oc2ccc(-c3ccc(C[C@@H](C#N)NC(=O)C4CC=CCNC4)cc3)cc21 (stereo partly drawn)
1900
Cn1c(=O)oc2ccc(-c3ccc(C[C@@H](C#N)NC(=O)C4(CN)CCC4)cc3)cc21
2770
Cn1c(=O)oc2ccc(-c3ccc(C[C@@H](C#N)NC(=O)C4CNCCS(=O)(=O)C4)cc3)cc21 (stereo partly drawn)
2760

----------
TARGET_OR_TEST_SYSTEM: UniProt P97821
TEST_NAME: Mouse DPP1 Enzyme IC50 Assay
Type: biochemical
MEASUREMENT_CONDITIONS: mouse DPP1 enzyme; Table 16; read-out: IC50, nM; Mouse
PROPERTY_NAME: IC50

Cn1c(=O)oc2ccc(-c3ccc(C[C@@H](C#N)NC(=O)C4CCNCC4)cc3)cc21
> 5000 nM
Cn1c(=O)oc2ccc(-c3ccc(C[C@@H](C#N)NS(=O)(=O)CCN)cc3)cc21
> 5000 nM
Cn1c(=O)oc2ccc(-c3ccc(C[C@@H](C#N)NS(N)(=O)=O)cc3)cc21
> 5000 nM
